Hello, the source for this data is patent US20180320179A1, in case you need it.

Tested on: Zymoseptoria tritici (SEPTTR-184)
protocol-details: Cyp51 dsRNA tile (fragment) foliar application bioassay (Example 6)
Format: in vivo
cond: 1 day protectant; rate 50 ppm; average of 2 trials
property-name: Disease Control (%) SEPTTR-184 1DP
Your answer should be a plain number; it is taken to be in %.

[Q] Give the measured Disease Control (%) SEPTTR-184 1DP for MgCyp51-T11: dsRNA tile of Zymoseptoria tritici Cyp51, 172 bp, location 775-946 (nucleic acid, listed as Zymoseptoria tritici) TCCGAGACATACATGTCGATCATTCAGAAGAGACGAGAGTCCAAAACGGGCGAACATGAGGAAGACATGATCCACAACTTGATGCAGTGCAAATACAAGGACGGCAATGCCATTCCCGACAAGGAGATTGCTCATATGATGATTGCGCTGCTCATGGCCGGCCAGCACTCTT
[A] 58

[Q] Identify the reported Disease Control (%) SEPTTR-184 1DP for the following entry. MgCyp51-T6: dsRNA tile of Zymoseptoria tritici Cyp51, 280 bp, location 881-1160 (nucleic acid, listed as Zymoseptoria tritici) ATGCCATTCCCGACAAGGAGATTGCTCATATGATGATTGCGCTGCTCATGGCCGGCCAGCACTCTTCATCTGCGACCGAGTCCTGGATCACTCTCCGCCTCGCATCCCGCCCCGACATCCAAGACGAACTCCTCCAAGAACAAAAGGATATGCTCGGTGTGAACGCCGACGGCAGTATCAAGGAGCTCACATACGCCAACCTCTCGAAACTCACCCTCCTCAATCAAGTCGTCAAAGAAACCCTTCGTATTCACGCTCCAATCCACTCCATTCTGCGCAA
[A] 71

[Q] Annotate the molecule MgCyp51-T10: dsRNA tile of Zymoseptoria tritici Cyp51, 172 bp, location 345-516 (nucleic acid, listed as Zymoseptoria tritici) GGACGTCAACGCGGAGGAGATATACAGCCCGCTGACCACTCCTGTCTTTGGCAAGGATGTGGTTTATGATTGTCCCAATTCGAAGCTCATGGAGCAGAAGAAGTTCGTCAAGTACGGCCTCACAACCTCTGCCCTCCAGTCCTACGTGACCTTGATCGCCGCCGAGACCCGC with its measured Disease Control (%) SEPTTR-184 1DP.
[A] 73

[Q] Input MgCyp51-T3: dsRNA tile of Zymoseptoria tritici Cyp51, 230 bp, location 450-679 (nucleic acid, listed as Zymoseptoria tritici) CGTCAAGTACGGCCTCACAACCTCTGCCCTCCAGTCCTACGTGACCTTGATCGCCGCCGAGACCCGCCAGTTCTTCGACCGCAACAACCCTCATAAGAAGTTCGCATCGACCAGCGGCACGATCGATCTCCCACCAGCCCTCGCCGAACTTACGATCTATACTGCCAGCCGATCATTGCAAGGAAAGGAAGTCCGCGAGGGCTTCGACTCGTCTTTCGCGGACCTCTACC , output reported Disease Control (%) SEPTTR-184 1DP.
[A] 69

[Q] Identify Disease Control (%) SEPTTR-184 1DP associated with the molecule MgCyp51-T13: dsRNA tile of Zymoseptoria tritici Cyp51, 119 bp, location 1517-1635 (nucleic acid, listed as Zymoseptoria tritici, long dsRNA tile, purified, chemistry not given here) ACAATGTGGATGGCAGCGACAACGTGGTGGGTACGGATTACAGCAGTTTGTTCAGCCGGCCGCTGTCGCCGGCAGTAGTAAAGTGGGAGAGGAGGGAGGAGAAGGAGGAGAAGAACTGA
[A] 70
